- Method Notes: Metabolic stability in rat liver microsomes assessed as clearance at 1 uM measured per mg protein incubated upto 60 mins in presence of NADPH by LC-MS/MS analysis
- Type: ADME, Microsome
- Condition Summary: read-out: CLH
Measured Quantity: microsomal CLint at 1 µM (µL/min/mg)
A number alone suffices; assume µL/min/mg.

# Molecule, Quantity Unit, microsomal CLint at 1 µM
measured = [
    ("O=C(N[C@@H](c1ccccc1)c1cccc(OCc2ccc(CCNC[C@H](O)c3ccc(O)c4[nH]c(=O)ccc34)cc2)c1)O[C@H]1CN2CCC1CC2 (racemic)", "µL/min/mg", 10),
]

// switching to the query molecule
Query: Record request: microsomal CLint at 1 µM value, item `Cn1nc(C(=O)OCCCCNC[C@H](O)c2ccc(O)c3[nH]c(=O)ccc23)cc1COc1cccc([C@@H](NC(=O)O[C@H]2CN3CCC2CC3)c2ccccc2)c1`
Result: 37

---

- Method Notes: Metabolic stability in human hepatocytes assessed as clearance at 1 uM measured per 10^6 cells and incubated upto 90 mins by LC-MS/MS analysis
- Format: ADME, cell-based, Hepatocyte
- Condition Summary: read-out: CLH
Measured Quantity: hepatocyte CLint at 1 µM (µL/min/1e6 cells)
A number alone suffices; assume µL/min/1e6 cells.

# Molecule, Measured Quantity, Assay Value
measured = [
    ("O=C(N[C@@H](c1ccccc1)c1cccc(OCc2ccc(CCNC[C@H](O)c3ccc(O)c4[nH]c(=O)ccc34)cc2)c1)O[C@H]1CN2CCC1CC2 (racemic)", "hepatocyte CLint at 1 µM", 6),
]

// switching to the query molecule
Query: Record request: hepatocyte CLint at 1 µM value, item `Cn1nc(C(=O)OCCCCNC[C@H](O)c2ccc(O)c3[nH]c(=O)ccc23)cc1COc1cccc([C@@H](NC(=O)O[C@H]2CN3CCC2CC3)c2ccccc2)c1`
Result: 33

---

- Method Notes: Metabolic stability in human plasma assessed as half life at 5 uM measured upto 120 mins by LC-MS/MS analysis
- Type: ADME, cell-free
Measured Quantity: half-life at 5 µM

Query: Record request: half-life at 5 µM value, item `O=C(N[C@@H](c1ccccc1)c1cccc(OCc2cccc(C(=O)OCCCCNC[C@H](O)c3ccc(O)c4[nH]c(=O)ccc34)c2)c1)O[C@H]1CN2CCC1CC2`
Result: < 5 min

Query: For O=C(NC(c1ccccc1)c1cccc(OCc2ccc(C(=O)OCCCCNC[C@H](O)c3ccc(O)c4[nH]c(=O)ccc34)cc2)c1)O[C@H]1CN2CCC1CC2 (mixture of isomers) then?
Result: < 5 min

Query: For `O=C(N[C@@H](c1ccccc1)c1cccc(OCc2nc(C(=O)OCCCCNC[C@H](O)c3ccc(O)c4[nH]c(=O)ccc34)co2)c1)O[C@H]1CN2CCC1CC2` then?
Result: < 5 min

---

- Method Notes: Apparent permeability across basolateral to apical side in human Caco-2 cells at 10 uM and measured after 2 hrs by LC-MS/MS analysis
- Type: ADME, cell-based
Parameter Papp B→A at 2 h, 10 µM: see the listing below.
A number alone suffices; assume ×10⁻⁶ cm/s.

# Compound, Measured Quantity, Assay Value
measured = [
    ("O=C(N[C@@H](c1ccccc1)c1cccc(OCc2ccc(CCNC[C@H](O)c3ccc(O)c4[nH]c(=O)ccc34)cc2)c1)O[C@H]1CN2CCC1CC2 (racemic)", "Papp B→A at 2 h, 10 µM", 3.1),
]

Query: Record request: Papp B→A at 2 h, 10 µM value, item `Cn1nc(C(=O)OCCCCNC[C@H](O)c2ccc(O)c3[nH]c(=O)ccc23)cc1COc1cccc([C@@H](NC(=O)O[C@H]2CN3CCC2CC3)c2ccccc2)c1`
Result: 1.5
